# assay-info: doxorubicin toxicity protection in MRP-1 cells – H69AR cells, CellTiter-Glo, duplicate, MRP-1 activator project, pilot screen (AID 807);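 also: compound pretreatment 18-22 h then 72 h combined with doxorubicin; 0% = doxorubicin alone and 100% = vehicle without doxorubicin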
# run-parameters: H69AR viability with doxorubicin, CellTiter-Glo luminescence; at 10 µM; stronger effect = higher value
Here the recorded viability increase is given for each entry.
// units = %; emit number, no label

INSERT INTO measurements (chemical_structure, value_observed) VALUES
  ('CCOC(=O)N1CCN(C(=O)CN(c2cc(Cl)ccc2OC)S(=O)(=O)c2ccccc2)CC1', -2.13);

**Query** For COc1ccc(NS(=O)(=O)c2ccc(NC(C)=O)cc2)cc1OC , what is its reported viability increase?
**Result** 0.44

**Query** For CCOC(=O)c1sc2nc(NC(=O)C3CCCCC3)sc2c1C , what is its reported viability increase?
**Result** -0.22

**Query** For Cc1cccc(Cn2c(SCCN3CCOCC3)nc3c2c(=O)n(C)c(=O)n3C)c1 , what is its reported viability increase?
**Result** -2.36

**Query** For COC(=O)c1oc2ccc(Br)cc2c1NC(=O)CCCN1C(=O)c2ccccc2C1=O , what is its reported viability increase?
**Result** 0.98

* * *

# assay-info: S. cerevisiae growth inhibition in permissive medium (OD615), pilot counter-assay for S. cerevisiae lifespan shortening project, permissive growth control (AID 705)
# run-parameters: OD615, 24 h, at 10 µM, stronger effect = higher value
Here the recorded growth inhibition is given for each entry.
// units = %; emit number, no label

Examples with answers:
INSERT INTO results (compound, readout_units, value_observed) VALUES
  ('CCC1CCCCN1CCCNC(=O)CC1Oc2ccc(C)cc2NC1=O (stereo not given)', '%', 2.28),
  ('CC1CCCN(C(=O)CN2C(=O)c3ccccc3C2=O)C1 (stereo not given)', '%', -15.4),
  ('Cc1cccc(NC(=O)CS(=O)(=O)c2cn(C)c3ccccc23)c1', '%', 1.62),
  ('O=C(C1CCC(CNc2c(N3CCCCC3)c(=O)c2=O)CC1)N1CCc2ccccc2C1 (stereo not given)', '%', -4.97);

**Query** For CCOC(=O)C1=C(N)OC2=C(C(=O)CCC2)C1c1cccs1 (stereo not given) , what is its reported growth inhibition?
**Result** -0.655

**Query** For COc1ccc(N2CCN(C(=O)C34CCC(C)(C(=O)C3)C4(C)C)CC2)cc1 (stereo not given) , what is its reported growth inhibition?
**Result** -1.5

**Query** For CCCNC(=O)CS(=O)(=O)Cc1nc(-c2cccc(OC)c2)oc1C , what is its reported growth inhibition?
**Result** 7.42

**Query** For COc1ccc(NC(=O)c2cnn3c(C(F)(F)F)cc(-c4ccco4)nc23)cc1OC , what is its reported growth inhibition?
**Result** -11.5

**Query** For CCn1c(=O)c2cc(C(=O)NCc3cccs3)sc2c2ccccc21 , what is its reported growth inhibition?
**Result** -11.3

**Query** For CCC(=O)N1c2ccccc2NC2=C(C(=O)CC(c3ccco3)C2)C1c1ccco1 (stereo not given) , what is its reported growth inhibition?
**Result** -7.69

* * *

# assay-info: MRP1 drug-resistance reversers in H69AR cells – cell-based, doxorubicin co-treatment, pilot screen (AID 601)
# run-parameters: H69AR cells, CellTiter-Glo, 72 h; compound alone cytotoxicity; at 10 µM
measured-parameter: viability (%)
// units = %; emit number, no label

Examples with answers:
INSERT INTO measurements (compound, measured_parameter, readout_units, value_observed) VALUES
  ('Cc1oc(-c2cccc(Cl)c2)nc1CN1CCC(C(=O)N2CCN(c3ccccc3F)CC2)CC1', 'viability', '%', 32.3),
  ('COc1ccccc1-n1c(=O)[nH]c2c(C(N)=O)nc(-c3cccnc3)nc21', 'viability', '%', 69.9);

**Query** For CCC(C)C(NC(=O)C1CCC(C)CC1)C(=O)NCc1cccnc1 (configuration not stated) , what is its reported viability?
**Result** 102

**Query** For COc1ccccc1OCC(=O)N1CCN(c2ccccc2OC)CC1 , what is its reported viability?
**Result** 104

**Query** For Cc1c(NC(=O)C2CCCCN2S(=O)(=O)c2ccc(Cl)cc2)c(=O)n(-c2ccccc2)n1C (configuration not stated) , what is its reported viability?
**Result** 91.3

**Query** For CCOC(=O)c1ccc(NS(=O)(=O)c2ccc3c(c2)oc(=O)n3C)cc1 , what is its reported viability?
**Result** 113

**Query** For CCCc1cc(C(=O)Nc2sc(C)c(C)c2C(=O)OCC)no1 , what is its reported viability?
**Result** 92.6

**Query** For CCCCOCCCNC(=O)COc1ccccc1 , what is its reported viability?
**Result** 94.1

**Query** For COC(=O)c1sc(NC(=O)COc2ccccc2OC)nc1C , what is its reported viability?
**Result** 95.1

**Query** For CCOC(=O)c1cccc(NC(=O)CNS(=O)(=O)c2cccs2)c1 , what is its reported viability?
**Result** 88.3
